System: SN12C renal
experimental_details: NCI-60 one-dose screen, 48 h (100 = growth as untreated, 0 = no growth, -100 = all killed)
assay_conditions: 10 µM unless noted
The panel holds about 83,000 compounds, 20% with a hit somewhere; the sample as a whole holds those more often.
The entries below are paired with their reported growth.
Give your result in % as a bare value.

Please review the following examples before continuing.
• CC1Cc2ccccc2N1NC(=O)c1ccc(Cl)c(S(N)(=O)=O)c1 (centres undefined) = 96.3
• CC(=O)CC[C@H]1C(=O)N[C@@H](C(C)C)C(=O)N[C@@H](Cc2cc(O)cc(F)c2)C(=O)N2CCC[C@H](N2)C(=O)O[C@H](/C(C)=C/C=C/C(=O)OC(C)(C)C)C/C=C/C=C/[C@H](O)[C@H](C)[C@H]1O = 53.7
• COc1cc(Nc2nc(NCCN)nc3cc[nH]c(=O)c23)cc(OC)c1 = 70.3

Qu. For the molecule shown here, Cc1nc(/N=C(\N)NC(=O)Nc2ccccc2Cl)sc1C , give the reported growth.
Ans. 42.7

---

System: SF-539 CNS
experimental_details: NCI-60 one-dose screen, 48 h (100 = growth as untreated, 0 = no growth, -100 = all killed)
assay_conditions: 10 µM unless noted
The panel holds about 83,000 compounds, 20% with a hit somewhere; the sample as a whole holds those more often.
Readings of growth for the listed compounds
Entry rule: numbers only, all in %.

Use the examples below as a reference point.
* COc1cc(CCCO)c(OC)c(OC)c1OC | 97.1
* Nc1nc2ccccc2c2c(=O)c3cc(F)ccc3sc12 | 104

Qu. Tell me the measured growth of C=C1C(=O)O[C@H]2[C@H]1CC/C(COC(=O)C(C)c1ccc(CC(C)C)cc1)=C\CC[C@@]1(C)O[C@@H]21 (stereo partly drawn) , please.
Ans. 22.1

Qu. COc1cccc(-c2nc(-c3ccc(NC(=O)C(C)C)cc3)[nH]c2-c2ccnc(Br)c2)c1 ?
Ans. 16

---

System: IGROV1 ovarian
experimental_details: NCI-60 one-dose screen, 48 h (100 = growth as untreated, 0 = no growth, -100 = all killed)
assay_conditions: 10 µM unless noted
The panel holds about 83,000 compounds, 20% with a hit somewhere; the sample as a whole holds those more often.
measured_attribute: growth (%)
Field format: number, assumed %, no unit text.

* O=C(Nc1ccc(Cl)cc1F)c1ccccc1O | 20.5
* c1ccc(Nc2cc(-c3cccnc3)[nH]n2)cc1 | 95.7
* COc1ccc(C2CC(c3ccc(Nc4ccnc5cc(Cl)ccc45)cc3)=NN2C=O)cc1 (stereo not given) | 67.5
* Cc1cc(O)c(C2=NN(c3ccc(S(N)(=O)=O)cc3)C(/C=C/c3ccccc3)C2)cc1Cl (stereo not given) | 16
* Cc1ccc(C(=O)N/N=C/c2cccc([N+](=O)[O-])c2)cn1 | 108
* CCCCn1c(=O)c(-c2cc(-c3ccc(Cl)cc3)nc(-c3ccc(Cl)cc3)c2)cc2ccc(Cl)cc21 | 105

Qu. Request body: readout growth, system IGROV1 ovarian, query COc1cc(/C=C/C(=O)/C=C/c2cc(OC)c3c(c2OC)OCO3)c(OC)c2c1OCO2 . Return the value.
Ans. 29.8

Qu. Another: COc1cc(OCc2cccc(-c3ccc(C(O)c4nccs4)cc3)c2C)cc(OC)c1CNCCNC(C)=O (stereo not given)
Ans. 103
